# TARGET OR TEST SYSTEM: RORgT (Homo sapiens)
# Construct: Gal4 (fusion partner); expressed in transfected cells; host or cells: engineered Jurkat cells (Jurkat pEx/Gal/hRORγ CLBD/HYG pG5luc/blast)
# Sequence (P51449 267-516): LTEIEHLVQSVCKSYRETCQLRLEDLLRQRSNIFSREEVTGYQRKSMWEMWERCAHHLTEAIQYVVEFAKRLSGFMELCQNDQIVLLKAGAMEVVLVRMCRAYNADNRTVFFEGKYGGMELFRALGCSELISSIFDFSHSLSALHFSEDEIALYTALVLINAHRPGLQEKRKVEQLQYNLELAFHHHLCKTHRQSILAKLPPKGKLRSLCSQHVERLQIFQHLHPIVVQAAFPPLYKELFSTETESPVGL
# ASSAY PROCEDURE: RORgT Gal4 Luciferase Reporter Gene Assay
# Format: cell-based
# CONDITION NOTES: engineered Jurkat cells overexpressing RORgT (LBD or full length) with Gal4 Luc reporter; 18 hours at 37° C.; 40 μM to 0.67 nM; read-out: RORg_GAL4 EC50
MEASURE: EC50 (nM)

// solved cases for EC50 follow
COc1ccc(Oc2c(Cl)cc(NC(=O)CC3CCCN(S(=O)(=O)C(C)C)C3)cc2Cl)cc1C(C)C (stereo not shown)	943
CC(C)c1cc(Oc2c(Cl)cc(NC(=O)Cc3cccnc3)cc2Cl)ccc1Cl	204

(P) COc1ccc(Oc2c(Cl)ccc(C(=O)NCc3ccccc3Cl)c2Cl)cc1C(C)C
(Q) CCOc1ccc(Oc2c(Cl)cc(NC(=O)Cc3cccnc3)cc2Cl)cc1C(C)C
Could you tell me which of P and Q has the lower EC50 reading? Select an item and report its label.
Q
